Please provide measured Cmax for the entries that follow.
# TEST METHOD NOTES: Comparative single dose toxicokinetic study in dogs, 30 minutes intravenous infusion
# Type: in vivo, beagle dogs
# MEASUREMENT SETUP: female, beagle, dog, plasma, iv, 1.25 mg/kg, mean, plasma, labelled analyte; group 2: melflufen-d5 (III) 1.25 mg/kg 30 min infusion; females; read-out: Cmax
Structures can show the parent of a compound that is named as a salt.
The reply should be a number in nM, with the unit left off.

# get_value(readout='Cmax', item= "N[C@@H](Cc1ccc(N(CCCl)CCCl)cc1)C(=O)N[C@@H](Cc1ccc(F)cc1)C(=O)O" ) 30.8

# repeat for [2H]C([2H])([2H])C([2H])([2H])OC(=O)C(Cc1ccc(F)cc1)NC(=O)C(N)Cc1ccc(N(CCCl)CCCl)cc1 (stereo not drawn) [melflufen-d5 (III), hydrochloride] 99.3

Same again, this time with "N[C@@H](Cc1ccc(N(CCCl)CCCl)cc1)C(=O)O" 1130
